Below: a set of entries, each annotated with reported pKd.
# targetOfAssay: T1, human TL1A (human, UniProt O95150 72-251)
# T1 construct: Antigen in SPR and ELISA; Also used here for places that print only 'TL1A' and for endogenous TL1A in human whole blood; also called TNFSF15
# T1 sequence (looked up): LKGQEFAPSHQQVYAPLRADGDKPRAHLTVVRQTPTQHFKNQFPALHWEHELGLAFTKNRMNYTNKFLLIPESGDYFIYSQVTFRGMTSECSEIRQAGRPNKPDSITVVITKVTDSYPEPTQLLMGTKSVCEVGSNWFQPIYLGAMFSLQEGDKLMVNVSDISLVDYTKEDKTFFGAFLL
# assayText: SPR, Fab format, average
pKd: −log10 of the molar value.
readoutType: pKd

1) Antibody 11 (Fab format) (Fab, V domains shown, High priority lead, Fab format) VH: QVQLQESGPGLVRPSQTLSLTCTVSGFDMGDTYMHWVRQRPGRGLEWMGRIEPAGGHTKYNPSLKSRVTITRDTSKNQVSLRLSSVTAADTAVYYCVRSGGMPDVWGQGSLVTVSS VL: DIQMTQSPSSLSASVGDRVTITCRASQGVEYMYWYQQKPGKAPKLLIYSASNLASGVPSRFSGSGSGTDFTFTISSLQPEDIATYYCQQWEGNPRTFGQGTKVEIK | 9.32
2) Antibody 16 (Fab format) (Fab, V domains shown, High priority lead, Fab format) VH: QVQLQESGPGLVRPSQTLSLTCTVSGFDMQSTYMHWVRQRPGRGLEWMGRIEPAGGHTKYNPSLKSRVTITRDTSKNQVSLRLSSVTAADTAVYYCVRSGGLPDVWGQGSLVTVSS VL: DIQMTQSPSSLSASVGDRVTITCRASQGVEYMYWYQQKPGKAPKLLIYGASNLASGVPSRFSGSGSGTDFTFTISSLQPEDIATYYCQQWEGNPRTFGQGTKVEIK | 9.29
3) Antibody 4 (Fab format) (Fab, V domains shown, High priority lead, Fab format) VH: QVQLQESGPGLVRPSQTLSLTCTVSGFDMADTYMHWVRQRPGRGLEWMGRIEPAGGHTKYNPSLKSRVTITRDTSKNQVSLRLSSVTAADTAVYYCVRSGGLPDMWGQGSLVTVSS VL: DIQMTQSPSSLSASVGDRVTITCRASSSVSYMYWYQQKPGKAPKLLIYGASNLASGVPSRFSGSGSGTDFTFTISSLQPEDIATYYCQQWEGNPRTFGQGTKVEIK | 9.48
